# System: L1210 leukemia ip in BDF1 mice, survival T/C
# PROTOCOL_SUMMARY: NCI In Vivo Anticancer Drug Screen. Data for tumor model L1210 Leukemia (intraperitoneal) in B6D2F1 (BDF1) mice
# CONDITIONS: endpoint: mean survival time; dose: 100.0 mg/kg/injection; schedule: Q01DX009 (ip); vehicle: Klucel (hydroxypropylcellulose) (HPC); higher = longer survival
Inconclusive results and toxic doses are left out.
The following compounds are listed with their measured T/C values.

The cases that follow already have their T/C on record.
| SMILES_REPRESENTATION | EXPERIMENTAL_VALUE |
| --- | --- |
| CN(C)c1ccc(C(/C=N\O)(c2ccc(N(C)C)cc2)c2ccc(N(C)C)cc2)cc1 | 101 % of control |
| Cn1cnc([N+](=O)[O-])c1S(=O)(=O)NCN1CCOCC1 | 113 % of control |
| Nc1nc(N)nc(-c2ccccc2NC(=O)c2ccccc2[N+](=O)[O-])n1 | 91 % of control |

Q. Which T/C value is on record for OCC1=C(CO)C2(Cl)C(Cl)=C(Cl)C1(Cl)C2(Cl)Cl ?
A. 100 % of control

Q. Which T/C value is on record for Cc1c(C#N)oc2c(Cl)cc(Cl)cc12 ?
A. 99 % of control

Q. Which T/C value is on record for CCc1ccccc1NC(=O)Nc1ccc(C(=O)O)cc1 ?
A. 98 % of control

----------
# Tested on: L1210 leukemia ip in BDF1 mice, survival T/C
# PROTOCOL_SUMMARY: NCI In Vivo Anticancer Drug Screen. Data for tumor model L1210 Leukemia (intraperitoneal) in B6D2F1 (BDF1) mice
# CONDITIONS: endpoint: mean survival time; dose: 200.0 mg/kg/injection; schedule: Q04DX002 (ip); vehicle: saline with Tween-80; higher = longer survival
Inconclusive results and toxic doses are left out.
REPORTED_PROPERTY: T/C

The cases that follow already have their T/C on record.
| COMPOUND | T/C |
| --- | --- |
| O=C(OC1CSC(OC(=O)c2ccccc2)CS1)c1ccccc1 (stereo not drawn) | 95 % of control |
| C=Cc1ccc(C(=O)O)cc1 | 98 % of control |
| CCC1(c2ccccc2)C(=O)N(COCc2ccccc2)C(=O)N(COCc2ccccc2)C1=O | 95 % of control |

Q. Which T/C value is on record for COC(=O)c1cn2ccc(C#N)cc2c1C(=O)OC ?
A. 95 % of control

Q. Which T/C value is on record for O=C(N/N=C/c1ccccc1O)C(O)C(O)C(O)C(O)CO (stereo not drawn) ?
A. 106 % of control

Q. Which T/C value is on record for CN1c2ccccc2NP1(=S)c1ccccc1 (stereo not drawn) ?
A. 90 % of control

Q. Which T/C value is on record for CCOC(=O)c1cc(/C=C/C=O)oc1N ?
A. 101 % of control

----------
# Test system: L1210 leukemia ip in BDF1 mice, survival T/C
# PROTOCOL_SUMMARY: NCI In Vivo Anticancer Drug Screen. Data for tumor model L1210 Leukemia (intraperitoneal) in B6D2F1 (BDF1) mice
# CONDITIONS: endpoint: mean survival time; dose: 100.0 mg/kg/injection; schedule: Q01DX009 (ip); vehicle: saline with Tween-80; higher = longer survival
Inconclusive results and toxic doses are left out.
REPORTED_PROPERTY: T/C

The cases that follow already have their T/C on record.
| MOLECULE | EXPERIMENTAL_VALUE |
| --- | --- |
| COC(OC)c1nc(NC(C)=O)[nH]c(=O)c1Cc1ccc(N)cc1 | 96 % of control |
| CC(Cl)CNC(=O)Nc1cccc2c1CCCC2 (stereo unspecified) | 96 % of control |
| O=C(/C=C/c1c(Cl)cccc1Cl)c1ccc(Cl)cc1 | 98 % of control |
| CCCCCCCCCCOB(OCCCCCCCCCC)OCCCCCCCCCC | 96 % of control |
| O=c1c(O)c(-c2ccc(O)cc2O)oc2cc(O)cc(O)c12 | 103 % of control |
| CC(=O)C1(C(C)=O)C(c2cccc([N+](=O)[O-])c2)C1(c1ccccc1)[N+](=O)[O-] (stereo unspecified) | 94 % of control |

Q. Which T/C value is on record for COC(=O)c1ccc(O)c([N+](=O)[O-])c1 ?
A. 94 % of control

Q. Which T/C value is on record for CSc1ncc(C=O)c(N)n1 ?
A. 100 % of control

Q. Which T/C value is on record for CC(C)(C)P(=O)(O)O ?
A. 95 % of control
